tested on: SK-MEL-2 melanoma; test: NCI tumour cell line growth inhibition, 48 h
Give measured TGI for each item. Keep answers brief.

Q: So what's the measured TGI for this one? COC(=O)c1ccccc1CC(Cc1ccc2c(c1)CCC2)C(=O)OC (stereo not drawn)
A: > 100 µM

Q: What do we get for CCCn1cc2c(SC)nc(SC)nc2n1 ?
A: > 100 µM

Q: What do we get for COc1ccc2c(c1)CC[C@@H]1[C@@H]2CC[C@]2(C)c3c(cc(C(=O)O)c4sccc34)C[C@@H]12 ?
A: > 100 µM

Q: What do we get for O=C1CC2(CCC3=C(O2)c2ccccc2NC(=O)C3)C(=O)c2ccccc2N1 (stereo not drawn) ?
A: > 100 µM

Q: What do we get for CCOC(=O)NC/C=C/COC1CCCCO1 (stereo not drawn) ?
A: > 100 µM

Q: What do we get for c1ccc(C(NC2=NCCO2)c2ccccc2)cc1 ?
A: > 10 µM

Q: What do we get for O=C(c1nc2ccccc2[nH]c1=O)C(O)c1ccco1 (stereo not drawn) ?
A: > 100 µM

Q: What do we get for O=[N+]([O-])c1ccc(Oc2c(Cl)cc(S(=O)(=O)/N=C(\NO)Nc3ccc(Cl)cc3)cc2Cl)c(Cl)c1 ?
A: 35.7 µM

----------
system: RXF 393 renal; assay: NCI tumour cell line growth inhibition, 48 h
test-readout: TGI

Q: So what's the measured TGI for this one? OCCCNc1ncnc2[nH]ncc12
A: > 100 µM

Q: What do we get for OC[P+](CO)(CO)C12CC3CC(CC(C3)C1)C2 ?
A: > 100 µM

Q: What do we get for CC1(C)C2CC(O)C1CCC2=O (stereo not drawn) ?
A: > 100 µM

Q: What do we get for O=C1/C(=C/c2ccco2)N=C2Sc3c(nc[nH]c3=O)N12 ?
A: > 100 µM

Q: What do we get for C=CCN1COc2c(cc3c4c(cccc24)C(=O)O3)C1 ?
A: > 10 µM

Q: What do we get for CC(=O)C1Cn2c(=O)c3cc4ccccc4cc3c(=O)n2C=C1C (stereo not drawn) ?
A: > 100 µM

Q: What do we get for COC(=O)c1ccccc1N1C(=O)Cc2ccccc2C1=O ?
A: > 100 µM

Q: What do we get for O=C1CC2(CCC3=C(O2)c2ccccc2NC(=O)C3)C(=O)c2ccccc2N1 (stereo not drawn) ?
A: > 100 µM

Q: What do we get for Cc1[nH]c(=O)[nH]c(=O)c1/C=C/C(=O)NC(CO)CS(=O)Cc1ccccc1 (stereo not drawn) ?
A: > 300 µM

Q: What do we get for CCN(CC)CCN(C(=Nc1ccccc1)N1CCCCC1)c1ccccc1 ?
A: 41.1 µM

Q: What do we get for N#Cc1cc([N+](=O)[O-])ccc1NC(=O)/C(=N\NC(=O)c1ccncc1)C(c1cnc2ccc([N+](=O)[O-])cc2n1)[N+](=O)[O-] (stereo not drawn) ?
A: 10.8 µM

Q: What do we get for COc1ccc2c(O)c(/C=C3\N=Nc4ccccc43)oc2c1C[C@@H]1CCNC[C@H]1F ?
A: 3.17 µM

Q: What do we get for O=C(CCCN1CCC(Nc2ccccc2)(c2nnnn2C2CCCCC2)CC1)c1ccc(F)cc1 ?
A: 22.4 µM

Q: What do we get for O=C([O][Hg][CH2]C1OCCOC1[CH2][Hg][O]C(=O)c1ccccc1)c1ccccc1 (stereo not drawn) ?
A: 4.06 µM

Q: What do we get for C/C(=N\NC(=S)NCCCCNC(=S)N/N=C(\C)c1ccccn1)c1ccccc1 ?
A: > 23.1 µM

Q: What do we get for CCSc1cc2c(cc1O)CC[C@@H]1[C@@H]2CC[C@]2(C)[C@@H](O)CC[C@@H]12 ?
A: 39.2 µM

Q: What do we get for Cc1ccc(C(=O)Cn2c(C(=O)/C=C/c3cccs3)nc3ccccc32)cc1 ?
A: > 100 µM

Q: What do we get for O=C(c1ccccc1)C(c1ccccc1)C1(O)C(=O)Nc2ccc([N+](=O)[O-])cc21 (stereo not drawn) ?
A: > 100 µM

Q: What do we get for CCOC(=O)Nc1nc2ccc(Br)cc2s1 ?
A: > 50 µM

Q: What do we get for CCCCC(C(=O)CCC(=O)Nc1ccc(Cl)c(Cl)c1)C(=O)C(C)C (stereo not drawn) ?
A: > 100 µM

Q: What do we get for O=C(NNC1=NCCCCN1)Nc1ccc(Cl)cc1 ?
A: > 100 µM

Q: What do we get for Clc1ccc(CCn2cncn2)cc1 ?
A: > 100 µM

Q: What do we get for Cc1nc(N2N=C(c3ccc(Cl)cc3)CCC2=O)sc1[N+](=O)[O-] ?
A: > 100 µM

Q: What do we get for S=C(NCCNC(=S)[S][Sn]([c]1ccccc1)([c]1ccccc1)[c]1ccccc1)[S][Sn]([c]1ccccc1)([c]1ccccc1)[c]1ccccc1 ?
A: 0.0206 µM

Q: What do we get for C(=N\Nc1ccccc1)/c1nc2ccccc2nc1/C=N/Nc1ccccc1 ?
A: 30.1 µM

Q: What do we get for Cn1nc(C(F)(F)F)cc1-c1c[nH]c(OCc2ccc(Cl)cc2)c(-c2ccc(Cl)c(C(F)(F)F)c2)c1=O ?
A: 3.4 µM

Q: What do we get for CC(Oc1ccccc1Cl)C(=O)NN1C(=O)CC(=O)NC1=S (stereo not drawn) ?
A: > 100 µM

Q: What do we get for CCOC(=O)CCSc1nc2ccc(I)cc2c(=O)n1Cc1ccccc1 ?
A: > 100 µM

Q: What do we get for N=C(N)SCc1c2ccccc2c(CSC(=N)N)c2ccccc12 ?
A: 23.7 µM

Q: What do we get for C/C=C1\CC2C(=O)CCC2C2c3ccccc3OC12 (stereo not drawn) ?
A: > 100 µM

Q: What do we get for CN(C)CCCNc1ncnc2c1ncn2C1OC(CO)C(O)C1O (stereo not drawn) ?
A: > 100 µM

Q: What do we get for CCCc1cc(=O)n2c(C(=O)Nc3cccc(C(=O)OCC)c3)c(C(=O)Nc3ccc(F)cc3)sc2n1 ?
A: 13.4 µM

Q: What do we get for COc1cc2ncnc(Nc3cccc(Cl)c3F)c2cc1OC(=O)N1CCN(C)C[C@H]1C ?
A: > 50.8 µM

Q: What do we get for Cc1c(Cl)nc(Cl)nc1Cl ?
A: 4.07 µM

Q: What do we get for Cc1c2c(OCC(O)CN3CCN(c4ccccc4)CC3)nn(C)c(=O)c2c(C)n1-c1ccccc1 (stereo not drawn) ?
A: 70.2 µM

Q: What do we get for CCOC(=O)c1cc(C(=O)c2cc(OC)c(OC)c(OC)c2)n2c1ccc1ccccc12 ?
A: 0.81 µM

Q: What do we get for Cn1cc(C2=C(c3c4n(c5ccccc35)CCC(CN)C4)C(=O)NC2=O)c2ccccc21 (stereo not drawn) ?
A: 6.47 µM

Q: What do we get for COC(=O)C1=C(OC(=O)/C(=C/c2ccccc2)c2ccc(Cl)cc2)C(C(=O)OC)[C@@]2(O)[C@@H](C(=O)OC)[C@H](C)C[C@@H]1[C@@H]2C(=O)OC (stereo partly drawn) ?
A: > 100 µM

----------
test system: M14 melanoma; experiment: NCI tumour cell line growth inhibition, 48 h
test-readout: TGI

Q: So what's the measured TGI for this one? CN(C)CCNC(=O)c1cccc2c(NC(CS)C(=O)O)c3ccccc3[n+](C)c12 (stereo not given)
A: > 100 µM

Q: What do we get for COc1cc2c(cc1OC)CC(=O)Nc1cc(OC)c(OC)cc1CC2 ?
A: > 100 µM

Q: What do we get for N#Cc1ccc(CSC2=C(c3ccc(Cl)cc3)S/C(=C3\SC(SCc4ccc(C#N)cc4)=C(c4ccc(Cl)cc4)S3)S2)cc1 ?
A: > 100 µM

Q: What do we get for COc1cc2oc(-c3ccc4c(c3)OCO4)c(OC)c(=O)c2c(OC)c1O ?
A: > 100 µM

Q: What do we get for CCOC(=O)NC/C=C/COC1CCCCO1 (stereo not given) ?
A: > 100 µM

Q: What do we get for N#Cc1c(N)n2c(nc1=Nc1ccc(Cl)cc1)sc1cc(Cl)ccc12 ?
A: > 100 µM

Q: What do we get for CC(C)(C)[Si](C)(C)OC1[C@@H](O[Si](C)(C)C(C)(C)C)[C@@H](CNC(=O)NC(=O)CF)O[C@H]1n1cnc2c(NC(=O)Nc3ccccc3)ncnc21 (stereo not given in full) ?
A: > 50 µM

Q: What do we get for N/C(=N/N=C/c1ccccc1)N/N=C\c1ccccc1 ?
A: 29.8 µM

Q: What do we get for COc1cc(-c2oc3c(OC)cc(OC)c(O)c3c(=O)c2OC)cc(OC)c1OC ?
A: > 100 µM

Q: What do we get for O=C1[C@@H]2C(c3ccccc3[N+](=O)[O-])=[N+](c3ccccc3)O[C@@H]2C(=O)N1c1ccc(Cc2ccc(N3C(=O)[C@H]4C(c5ccccc5[N+](=O)[O-])=[N+](c5ccccc5)O[C@H]4C3=O)cc2)cc1 ?
A: 49.9 µM
